Study System: Protein phosphatase 1D (Homo sapiens) (UniProt O15297)
Sequence (O15297 whole entry, looked up): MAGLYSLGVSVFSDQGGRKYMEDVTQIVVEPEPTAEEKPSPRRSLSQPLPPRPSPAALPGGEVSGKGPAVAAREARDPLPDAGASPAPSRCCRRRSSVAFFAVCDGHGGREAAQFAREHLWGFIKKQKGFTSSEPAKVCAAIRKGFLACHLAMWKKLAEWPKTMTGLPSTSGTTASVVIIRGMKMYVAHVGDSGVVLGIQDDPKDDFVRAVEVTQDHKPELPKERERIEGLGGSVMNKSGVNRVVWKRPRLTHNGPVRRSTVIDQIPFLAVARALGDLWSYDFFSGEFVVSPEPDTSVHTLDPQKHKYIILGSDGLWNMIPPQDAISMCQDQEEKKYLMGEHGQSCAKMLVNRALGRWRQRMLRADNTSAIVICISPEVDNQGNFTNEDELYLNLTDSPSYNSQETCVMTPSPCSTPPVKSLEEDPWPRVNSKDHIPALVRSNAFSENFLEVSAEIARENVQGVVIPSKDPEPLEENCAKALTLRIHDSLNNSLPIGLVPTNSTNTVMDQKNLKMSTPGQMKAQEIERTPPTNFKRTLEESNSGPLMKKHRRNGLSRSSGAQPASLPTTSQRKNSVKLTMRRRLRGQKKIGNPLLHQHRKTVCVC
Experiment: RapidFire Mass Spectrometry qHTS Assay for Modulators of WT P53-Induced Phosphatase 1 (WIP1) (AID 1347424);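 also: amount of dephosphorylated VEPPL-S-QETFS peptide product formed by WIP1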
Experimental Parameters: WIP1 dephosphorylation of phosphopeptide, RapidFire MS; series mostly up to 63 µM
Records with an inconclusive call do not appear. Active and inactive are the calls of the source. Calls follow the shape of the dose curve; as a rule, active = well fitted inhibition curve with a large enough effect; inconclusive = small, poorly fitted or top-dose-only effect; inactive = no such curve, though single readings can be large or run the other way.
Metric: activity change, negative = inhibition

Below, each entry is followed by its recorded activity change, negative = inhibition result.
# Compound, Result
rows = [
    ("FC(F)(F)C(Cl)Br (stereo not drawn)", "inactive"),
    ("CCOC(=O)[C@H](CCc1ccccc1)N[C@@H](C)C(=O)N1CCC[C@H]1C(=O)O", "inactive"),
    ("Cc1ccsc1/C=C/C1=NCCCN1C", "inactive"),
    ("CCN(CC)CCc1nc(-c2ccccc2)no1", "inactive"),
    ("C[N+](C)(C)CC(O)CC(=O)[O-] (stereo not drawn)", "inactive"),
]

Input line: Recorded activity change, negative = inhibition for NCc1ccc(S(N)(=O)=O)cc1 with Protein phosphatase 1D (Homo sapiens) (UniProt O15297), please?
Output line: inactive

Input line: Recorded activity change, negative = inhibition for NC(=O)CCCCC1CCSS1 (stereo not drawn) with Protein phosphatase 1D (Homo sapiens) (UniProt O15297), please?
Output line: inactive

###

Test system: PC26
Experiment: qHTS profiling for inhibitors of Plasmodium falciparum proliferation (AID 504749); also: nearly all actives have a fitted effect of over 60% in size
Experimental Parameters: P. falciparum in erythrocytes, SYBR Green DNA, 72 h; series mostly up to 28.7 µM
Results filed as inconclusive are left out. Calls of active or inactive are those of the source. Calls come from the whole dose curve; as a rule, active = well fitted inhibition curve with a large enough effect; inconclusive = small, poorly fitted or top-dose-only effect; inactive = flat fitted curve, though single readings scatter.
Metric: outcome

# Molecule, Result
measured = [
    ("NCC1CCC(C(=O)Oc2ccc(CCC(=O)O)cc2)CC1 (centres undefined)", "inactive"),
    ("O=C1CC[C@@H](C(=O)O)N1", "inactive"),
    ("C[C@@H]1CCC[C@H](C)N1", "inactive"),
    ("C=CCSCC1Nc2cc(Cl)c(S(N)(=O)=O)cc2S(=O)(=O)N1 (centres undefined)", "inactive"),
    ("Cc1cc(-n2nc3ccc(Cl)cc3n2)c(O)c(C(C)(C)C)c1", "inactive"),
]

Input line: Any idea what its outcome is? The molecule is CC(CSC(=O)c1ccccc1)C(=O)N1C[C@@H](Sc2ccccc2)C[C@H]1C(=O)O (some centres undefined)
Output line: inactive

Input line: Any idea what its outcome is? The molecule is C[C@@H](N)C(=O)O
Output line: inactive

Input line: Any idea what its outcome is? The molecule is O=C1c2cccc(O)c2C(=O)c2c(O)cccc21
Output line: inactive

Input line: Any idea what its outcome is? The molecule is CC(=O)Oc1cccc(O)c1
Output line: inactive

Input line: Any idea what its outcome is? The molecule is O=S1(=O)OC(c2ccc(O)cc2)(c2ccc(O)cc2)c2ccccc21
Output line: inactive

Input line: Any idea what its outcome is? The molecule is CC[N+](C)(CC)CCOC(=O)C1c2ccccc2Oc2ccccc21
Output line: inactive

Input line: Any idea what its outcome is? The molecule is OCc1ccc(Cl)cc1Cl
Output line: inactive

Input line: Any idea what its outcome is? The molecule is O=c1[nH]cnc2nc[nH]c12
Output line: inactive

Input line: Any idea what its outcome is? The molecule is COc1ccc2cc(CCC(C)=O)ccc2c1
Output line: inactive

Input line: Any idea what its outcome is? The molecule is Cc1ncc(CO)c(CN)c1O
Output line: inactive

Input line: Any idea what its outcome is? The molecule is O=C(O)Cn1c(C(=O)Nc2nc(-c3ccccc3Cl)cs2)cc2ccccc21
Output line: inactive

Input line: Any idea what its outcome is? The molecule is CCCCCC(C)N (centres undefined)
Output line: inactive

Input line: Any idea what its outcome is? The molecule is NS(=O)(=O)c1ccc(C(=O)O)cc1
Output line: inactive

Input line: Any idea what its outcome is? The molecule is Cc1c(Cn2ccnc2)c2ccccc2n1CCC(=O)O
Output line: inactive

Input line: Any idea what its outcome is? The molecule is Cc1c(I)c(=O)n(-c2ccccc2)n1C
Output line: inactive

Input line: Any idea what its outcome is? The molecule is Cc1cccc(C(=O)O)c1O
Output line: inactive

Input line: Any idea what its outcome is? The molecule is CN1C(C)(C)CCCC1(C)C
Output line: inactive

Source listed as PubChem BioAssay (NCATS).
